- system tested: Histone deacetylase (Homo sapiens) (UniProt Q13547+O15379+Q9UBN7+Q92769+Q9UQL6+Q8WUI4+Q9BY41+Q96DB2+P56524+Q9UKV0+Q969S8)
- test description: Inhibition of human HDAC in human HCT116 cells assessed as global histone H3 lysine-9 acetylation levels at 0.01 to 1 uM after 24 hrs by Western blotting method
- Format: cell-based
- study conditions: HCT-116
Active and inactive are the calls of the source. The calls are words filed in the database; no cut-off is given here.
// one of label 1 (active), label 0 (inactive), no free text

Example results:
| compound string | group label |
| --- | --- |
| C=CC[C@@H]1NC(=O)[C@]2(C)CSC(=N2)c2csc(n2)CNC(=O)C[C@@H](/C=C/CCSC(=O)CCCCCCC)OC1=O | label 1 |
| CCCCCCCC(=O)SCC/C=C/[C@@H]1CC(=O)NCc2nc(cs2)C2=N[C@@](C)(CS2)C(=O)N[C@H](Cc2cccc3ccccc23)C(=O)O1 | label 0 |
| CCCCCCCC(=O)SCC/C=C/[C@@H]1CC(=O)NCc2nc(cs2)C2=N[C@@](C)(CS2)C(=O)N[C@@H](C(C)C)C(=O)O1 | label 1 |
| CCCCCCCC(=O)SCC/C=C/[C@@H]1CC(=O)NCc2nc(cs2)C2=N[C@@](C)(CS2)C(=O)N[C@@H](Cc2cccc3ccccc23)C(=O)O1 | label 1 |

Below: the item to evaluate.
-- ask Recorded test call requested for CCCCCCCC(=O)SCC/C=C/[C@@H]1CC(=O)NCc2nc(cs2)C2=N[C@](C)(CS2)C(=O)N[C@@H](C(C)C)C(=O)O1
-- reply label 0
